test system: SR leukemia; experiment: NCI-60 one-dose screen, 48 h (100 = growth as untreated, 0 = no growth, -100 = all killed); settings: 10 µM unless noted
About 83,000 compounds went through this panel and 20% of them were active in at least one assay; those are over-represented in the sample as a whole. Activity calls are given as the source filed them. Rule for the calls: active = growth percent below 10; inactive = the rest.
measure: growth

Reference set (8 entries):
1. [2H]C([2H])([2H])Oc1ccc(F)cc1/C=C/C(=O)/C=C(O)/C=C/c1cc(F)ccc1OC([2H])([2H])[2H] : 69.4% (inactive)
2. Cc1nc2c(=O)nc3s/c(=C\c4ccco4)c(=O)n3c2nc1C : 94.2% (inactive)
3. C=CCOC(=O)C1=C(C)N(CC)C(=O)NC1c1c(Cl)n(C)c2ccccc12 (centres undefined) : 96.1% (inactive)
4. C[C@H](C(=O)N(CCc1ccc(Cl)c(Cl)c1)Cc1cncs1)[C@@H]1CC[C@H](C[C@H](C)n2cc(CN3CCC(c4ccc(Cl)cc4)CC3)nn2)O1 : -44.7% (active)
5. CC1(C)NCCC[C@]2(C)[C@H]3CC[C@H]4[C@H]5[C@H](C(=O)/C=C/c6cccnc6)CCC[C@]5(CO)CC[C@@]4(C)[C@]3(C)CC[C@@H]12 : -24.6% (active)
6. CCCCC#Cc1c(I)n(C)c(=O)[nH]c1=O : -35.9% (active)
7. CCCCCCCCCCCCCCCCCC1=NC(C)(C)CN1CC(C)O (centres undefined) : -13.6% (active)
8. Nc1nc(N)c2c(n1)NC(c1cccc(Nc3ccnc4cc(C(F)(F)F)ccc34)c1)CC(c1ccc(Br)cc1)=N2 (centres undefined) : 0.0412% (active)

Record COc1ccc(C(=O)c2cc3c(N)c(C(=O)Nc4ccccc4)sc3nc2C)cc1 . Reported growth: 8.41% (active)

Record O=C1Nc2c(C(=O)O)cccc2/C1=N/c1n[nH]c(=S)s1 . Reported growth: 84.6% (inactive)

Record CC1CCN(C(=O)CCCl)c2ccccc21 (centres undefined) . Reported growth: 113% (inactive)

Record O=C(O)c1ccc(-c2ccc(/C=N/Nc3nc(Nc4ccccc4)nc(N4CCCCC4)n3)o2)cc1 . Reported growth: 65.5% (inactive)

Record CCN(CC)c1ccc(CNc2cc(C)nc3ccccc23)cc1 . Reported growth: 50.5% (inactive)

Record Nc1[nH]n2cc(-c3ccc(F)cc3)nc2c1N=Nc1ccc(S(N)(=O)=O)cc1 . Reported growth: 66.5% (inactive)

Record CN(C)c1ccc(-c2nc(-c3ccccc3)c(-c3ccccc3)[nH]2)cc1 . Reported growth: 88.2% (inactive)

Record Cc1ccc(C(=O)Nc2cccc(C#Cc3cccc4[nH]nc(N)c34)c2)cc1C(F)(F)F . Reported growth: 69.3% (inactive)

Record N[C@H]1CCC[C@@H]1NCCCCN1C(=O)c2cccc3cc([N+](=O)[O-])cc(c23)C1=O . Reported growth: -6.77% (active)

Record O=C(/C=C/c1ccc(Cl)cc1)c1cccc(OCCCOc2cccc(C(=O)/C=C/c3ccc(Cl)cc3)c2)c1 . Reported growth: 32.8% (inactive)

Record Nc1ccc(-c2csc(-n3[nH]c(=O)ccc3=O)n2)cc1 . Reported growth: 102% (inactive)

* * *

system: T-47D breast; assay: NCI-60 one-dose screen, 48 h (100 = growth as untreated, 0 = no growth, -100 = all killed); conditions: 10 µM unless noted
This is part of a sample that, as a whole, favours compounds with a hit. Of some 83,000 tested, about 20% had one in any assay. Activity calls are given as the source filed them. How the source made its calls: active means growth percent below 10; inactive means the rest.
measure: growth

1. O=C1/C(=C2\SC(=S)N(C3CC3)C2=O)SC(=S)N1C1CC1 : 94.6% (inactive)

Record O=C1Nc2ccccc2/C1=C/c1cccn1C(=O)c1ccc(Cl)s1 . Reported growth: -31.3% (active)

Record CC1=C(CCC(C)NCc2ccc(OCCCN3CCCCC3)cc2)C(C)(C)CCC1 (configuration not stated) . Reported growth: -64.8% (active)

Record O=S(=O)(NCCNc1nccc(-c2c(-c3cccc(O)c3)nc3occn23)n1)c1ccc(Br)cc1 . Reported growth: 11.3% (inactive)
